Ref: patent US8952073B2

- experiment: in vitro
- measurement_parameters: intact hepatocytes
assay_endpoint: CC50 at 2 h

Please review the entries below; each comes with its answer.
>>> observed_value("C[C@]12CC[C@H](c3ccc(O)c(F)c3F)CC1CC[C@@H]2O (some centres unmarked)")
"155 to 200 µM"
>>> observed_value("C[C@]12CC[C@H](c3cc(F)c(O)c(F)c3F)CC1CC[C@@H]2O (some centres unmarked)")
"> 600 µM"
>>> observed_value("C[C@]12CC[C@H](c3ccc(O)c(F)c3)CC1CC[C@@H]2O (some centres unmarked)")
"400 to 450 µM"
>>> observed_value("C[C@]12CC[C@H](c3ccc(O)cc3)CC1CC[C@@H]2O (some centres unmarked)")
"320 to 400 µM"

**Q:** Please report the measured CC50 at 2 h for C[C@]12CC[C@H](c3ccc(O)cc3F)CC1CC[C@@H]2O (some centres unmarked)
**A:** 250 to 280 µM

----------
- system_name: ERβ (Homo sapiens)
- experiment: Relative binding affinity (RBA), radiolabel competition assay, estrogen beta receptor
- measurement_parameters: double bond in ring C; mixtures except entries 16, 17, 19, 20, 25, 26
Short version: RBAβ/RBAα at least 2 is met, less is not met.

Consider the worked cases shown below.
>>> group_label("C[C@]12CC=C(c3ccc(O)cc3CCSCc3ccccc3)CC1CC[C@@H]2O (stereo partly drawn)")
"met"
>>> group_label("C[C@]12CCC(c3ccc(O)cc3Cl)=CC1CC[C@@H]2O (stereo partly drawn)")
"not met"
>>> group_label("C[C@]12CCC(c3ccc(O)cc3CCSCc3ccccc3)=CC1CC[C@@H]2O (stereo partly drawn)")
"not met"

**Q:** Is RBAβ/RBAα at least 2? Consider C[C@]12CCC(c3cc(F)c(O)cc3F)=CC1CC[C@@H]2O (stereo partly drawn)
**A:** met

**Q:** Is RBAβ/RBAα at least 2? Consider C[C@]12CC=C(c3cc(F)c(O)cc3F)CC1CC[C@@H]2O (stereo partly drawn)
**A:** met

----------
- system_name: UniProt Q92731
- experiment: Relative binding affinity (RBA), radiolabel competition assay, estrogen beta receptor
- measurement_parameters: ring C saturated compounds, natural stereochemistry at C9
Short version: RBAβ/RBAα at least 9 is class 1, less is class 0.

**Q:** Is RBAβ/RBAα at least 9? Consider C[C@]12CC[C@H](c3ccc(O)c(F)c3F)CC1CC[C@@H]2O (stereo partly shown)
**A:** class 1

**Q:** Is RBAβ/RBAα at least 9? Consider C[C@]12CC[C@H](c3ccc(O)cc3F)CC1CC[C@@H]2O (stereo partly shown)
**A:** class 0

**Q:** Is RBAβ/RBAα at least 9? Consider C[C@]12CC[C@H](c3cc(F)c(O)c(F)c3)CC1CC[C@@H]2O (stereo partly shown)
**A:** class 0

**Q:** Is RBAβ/RBAα at least 9? Consider Cc1cc(O)ccc1[C@H]1CC[C@@]2(C)C(CC[C@@H]2O)C1 (stereo partly shown)
**A:** class 1

**Q:** Is RBAβ/RBAα at least 9? Consider C[C@]12CC[C@H](c3ccc(O)cc3)CC1CC[C@@H]2O (stereo partly shown)
**A:** class 1

**Q:** Is RBAβ/RBAα at least 9? Consider C[C@]12CC[C@H](c3ccc(O)c(F)c3)CC1CC[C@@H]2O (stereo partly shown)
**A:** class 0

----------
- system_name: ERβ (Homo sapiens, UniProt Q92731)
- Sequence (Q92731 whole entry): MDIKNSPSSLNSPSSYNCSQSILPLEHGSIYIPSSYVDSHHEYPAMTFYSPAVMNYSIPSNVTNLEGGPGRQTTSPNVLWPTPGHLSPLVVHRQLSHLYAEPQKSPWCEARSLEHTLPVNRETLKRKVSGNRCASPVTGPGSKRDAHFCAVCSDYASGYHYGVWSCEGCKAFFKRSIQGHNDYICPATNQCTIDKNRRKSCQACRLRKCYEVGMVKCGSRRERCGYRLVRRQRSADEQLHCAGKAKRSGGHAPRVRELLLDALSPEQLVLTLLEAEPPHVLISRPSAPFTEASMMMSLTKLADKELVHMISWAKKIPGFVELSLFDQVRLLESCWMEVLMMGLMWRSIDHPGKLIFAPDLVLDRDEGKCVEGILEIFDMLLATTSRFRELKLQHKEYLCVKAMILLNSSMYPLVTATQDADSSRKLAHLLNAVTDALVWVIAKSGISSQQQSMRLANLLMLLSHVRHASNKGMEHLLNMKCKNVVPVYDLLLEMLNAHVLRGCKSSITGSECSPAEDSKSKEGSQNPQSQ
- experiment: Relative binding affinity (RBA), radiolabel competition assay, estrogen beta receptor
- measurement_parameters: estradiol=100; ring C saturated compounds, natural stereochemistry at C9
assay_endpoint: RBAβ
Form field (numeric): enter value without unit.

Please review the entries below; each comes with its answer.
>>> observed_value("C[C@]12CC[C@H](c3ccc(O)c(F)c3)CC1CC[C@@H]2O (stereo partly shown)")
8.7
>>> observed_value("Cc1cc(O)ccc1[C@H]1CC[C@@]2(C)C(CC[C@@H]2O)C1 (stereo partly shown)")
33.6
>>> observed_value("C[C@]12CC[C@H](c3ccc(O)cc3F)CC1CC[C@@H]2O (stereo partly shown)")
135.5

**Q:** Please report the measured RBAβ for C[C@]12CC[C@H](c3cc(F)c(O)c(F)c3)CC1CC[C@@H]2O (stereo partly shown)
**A:** 0.28

**Q:** Please report the measured RBAβ for C[C@]12CC[C@H](c3ccc(O)c(F)c3F)CC1CC[C@@H]2O (stereo partly shown)
**A:** 42.8

**Q:** Please report the measured RBAβ for C[C@]12CC[C@H](c3ccc(O)cc3)CC1CC[C@@H]2O (stereo partly shown)
**A:** 21.5

**Q:** Please report the measured RBAβ for C[C@]12CC[C@H](c3cc(F)c(O)c(F)c3F)CC1CC[C@@H]2O (stereo partly shown)
**A:** 1.73

----------
- system_name: ERβ (Homo sapiens, UniProt Q92731)
- experiment: Relative binding affinity (RBA), radiolabel competition assay, estrogen beta receptor
- measurement_parameters: 9-hydroxy compounds, natural stereochemistry at C9
assay_endpoint: RBAβ/RBAα
Form field (numeric): enter value without unit.

Please review the entries below; each comes with its answer.
>>> observed_value("C[C@]12CC[C@](O)(c3ccc(O)cc3)CC1CC[C@@H]2O (stereo partly shown)")
10
>>> observed_value("C[C@]12CC[C@](O)(c3ccc(O)cc3F)CC1CC[C@@H]2O (stereo partly shown)")
21
>>> observed_value("C[C@]12CC[C@](O)(c3ccc(O)c(F)c3)CC1CC[C@@H]2O (stereo partly shown)")
13

Could you now look at the following molecule, please?
**Q:** Please report the measured RBAβ/RBAα for C[C@]12CC[C@](O)(c3cc(F)c(O)c(F)c3)CC1CC[C@@H]2O (stereo partly shown)
**A:** 4.6

----------
- system_name: ERβ (Homo sapiens)
- experiment: Relative transcription assay (RTA), estrogen response element driven luciferase, estrogen beta receptor
- Assay type: cell-based
Classify: true when Ratio RTAβ/RTAα is strictly less than 5; false when Ratio RTAβ/RTAα is not.

Consider the worked cases shown below.
>>> group_label("C[C@]12CC[C@H](c3ccc(O)c(F)c3F)CC1CC[C@@H]2O (stereo partly shown)")
"false"
>>> group_label("C[C@]12CC[C@H](c3cc(F)c(O)c(F)c3F)CC1CC[C@@H]2O (stereo partly shown)")
"true"
>>> group_label("C[C@]12CC=C(c3ccc(O)cc3Cl)CC1CC[C@@H]2O (stereo partly shown)")
"true"
>>> group_label("C[C@]12CCC(c3ccc(O)cc3Cl)=CC1CC[C@@H]2O (stereo partly shown)")
"true"
>>> group_label("C[C@]12CCC(c3ccc(O)cc3CCSCc3ccccc3)=CC1CC[C@@H]2O (stereo partly shown)")
"true"
>>> group_label("C[C@]12CC[C@H](c3ccc(O)cc3)CC1CC[C@@H]2O (stereo partly shown)")
"false"

**Q:** Report whether reported Ratio RTAβ/RTAα is lower than 5 (strictly) for C[C@]12CC[C@H](c3ccc(O)cc3F)CC1CC[C@@H]2O (stereo partly shown)
**A:** true

----------
- system_name: ERα (Homo sapiens)
- experiment: Relative binding affinity (RBA), radiolabel competition assay, estrogen alpha receptor
- measurement_parameters: estradiol=100; 9-hydroxy compounds, natural stereochemistry at C9
assay_endpoint: RBAα

**Q:** Please report the measured RBAα for C[C@]12CC[C@](O)(c3ccc(O)c(F)c3)CC1CC[C@@H]2O (stereo partly shown) [Entry 28]
**A:** 0.009

**Q:** Please report the measured RBAα for C[C@]12CC[C@](O)(c3ccc(O)cc3F)CC1CC[C@@H]2O (stereo partly shown) [Entry 29]
**A:** 0.17

**Q:** Please report the measured RBAα for C[C@]12CC[C@](O)(c3ccc(O)cc3)CC1CC[C@@H]2O (stereo partly shown) [Entry 27]
**A:** 0.01

**Q:** Please report the measured RBAα for C[C@]12CC[C@](O)(c3cc(F)c(O)c(F)c3)CC1CC[C@@H]2O (stereo partly shown) [Entry 30]
**A:** 0.005

----------
- system_name: ERα (Homo sapiens, UniProt P03372)
- Sequence (P03372 whole entry): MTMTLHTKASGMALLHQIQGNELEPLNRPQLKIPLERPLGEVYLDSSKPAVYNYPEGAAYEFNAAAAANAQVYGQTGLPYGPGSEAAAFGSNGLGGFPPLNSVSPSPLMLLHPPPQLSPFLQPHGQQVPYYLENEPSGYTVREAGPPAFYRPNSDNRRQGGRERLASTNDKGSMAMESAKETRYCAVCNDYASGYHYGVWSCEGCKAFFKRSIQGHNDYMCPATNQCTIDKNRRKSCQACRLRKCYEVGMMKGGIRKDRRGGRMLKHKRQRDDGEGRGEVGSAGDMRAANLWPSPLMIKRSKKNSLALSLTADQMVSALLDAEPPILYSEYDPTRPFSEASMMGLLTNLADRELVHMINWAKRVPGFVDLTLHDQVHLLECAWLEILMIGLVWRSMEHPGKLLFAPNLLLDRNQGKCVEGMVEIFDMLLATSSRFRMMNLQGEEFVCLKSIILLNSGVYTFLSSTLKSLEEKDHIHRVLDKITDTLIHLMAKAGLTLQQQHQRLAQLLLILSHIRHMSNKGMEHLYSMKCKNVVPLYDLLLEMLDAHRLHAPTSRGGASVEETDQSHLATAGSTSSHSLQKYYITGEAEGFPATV
- experiment: Relative binding affinity (RBA), radiolabel competition assay, estrogen alpha receptor
- measurement_parameters: estradiol=100; ring C saturated compounds, natural stereochemistry at C9
Classify: y when RBAα is strictly less than 3; n when RBAα is not.

Consider the worked cases shown below.
>>> group_label("C[C@]12CC[C@H](c3ccc(O)cc3Cl)CC1CC[C@@H]2O (some centres unmarked)")
"n"
>>> group_label("C[C@]12CC[C@H](c3cc(F)c(O)c(F)c3F)CC1CC[C@@H]2O (some centres unmarked)")
"y"
>>> group_label("C[C@]12CC[C@H](c3ccc(O)c(F)c3F)CC1CC[C@@H]2O (some centres unmarked)")
"n"
>>> group_label("C[C@]12CC[C@H](c3ccc(O)cc3F)CC1CC[C@@H]2O (some centres unmarked)")
"n"

**Q:** Report whether reported RBAα is lower than 3 (strictly) for C[C@]12CC[C@H](c3cc(F)c(O)c(F)c3)CC1CC[C@@H]2O (some centres unmarked)
**A:** y

**Q:** Report whether reported RBAα is lower than 3 (strictly) for C[C@]12CC[C@H](c3ccc(O)cc3)CC1CC[C@@H]2O (some centres unmarked)
**A:** y

**Q:** Report whether reported RBAα is lower than 3 (strictly) for Cc1cc(O)ccc1[C@H]1CC[C@@]2(C)C(CC[C@@H]2O)C1 (some centres unmarked)
**A:** y

**Q:** Report whether reported RBAα is lower than 3 (strictly) for C[C@]12CC[C@H](c3ccc(O)c(F)c3)CC1CC[C@@H]2O (some centres unmarked)
**A:** y
